test: Volatility of perfuming compounds (Tables 4 to 10), with top/middle/bottom note type; type: physicochemical; details: Table 6, perfuming compounds having a fruity note; note type by volatility
Measured quantity: Type

INSERT INTO assay_data (compound, observed_result) VALUES
  ('CCCCC/C(C=O)=C\c1ccccc1 [(E)-2-PENTYL-3-PHENYL-2-PROPENAL]', 'Bottom'),
  ('C=CCCCCCCCCO', 'Bottom'),
  ('CC(=O)OC(C)CCC=C(C)CCC=C(C)C (centres unmarked) [1,5,9-TRIMETHYL-4,8-DECADIENYL ACETATE]', 'Bottom');

----------
assay: Odor threshold and odor value of perfuming compounds (Tables 4 to 10); settings: Table 10, woody note
Returns: string. Value is condition met if measured Odor Threshold is below 0.0005 μg/l air, and condition not met if it is greater than or equal to it.

**Q:** Determine if `CCC(=O)O[C@H]1C[C@@H]2CC[C@@]1(C)C2(C)C` shows Odor Threshold strictly lower than 0.0005 μg/l air.
**A:** condition not met

**Q:** Please let me know if `C/C=C/C(=O)C1=C(C)CCCC1(C)C` shows Odor Threshold below 0.0005 μg/l air.
**A:** condition met

**Q:** Please indicate whether the reported Odor Threshold of `CC(C)CC(=O)O` is strictly below 0.0005 μg/l air.
**A:** condition met

**Q:** Please indicate whether the reported Odor Threshold of `C[C@@H]1CC[C@H]2C(C)(C)[C@H]3C[C@@]12C[C@@H]1OC(C)(C)O[C@@]13C` is strictly below 0.0005 μg/l air.
**A:** condition met

**Q:** Consider C/C=C(\C)C(=O)OCc1ccccc1 [BENZYL (E)-2-METHYL-2-BUTENOATE] . Does its Odor Threshold lie strictly below 0.0005 μg/l air?
**A:** condition met

**Q:** Strictly below 0.0005 μg/l air in Odor Threshold? `C/C=C/C(=O)C1=C(C)C=CCC1(C)C`
**A:** condition met

**Q:** Dear colleague, could you confirm whether Odor Threshold of CO[C@]1(C)CC[C@@]23C[C@@H]1C(C)(C)[C@@H]2CC[C@H]3C (racemic) [(+−)-8-methoxycedrane] falls below 0.0005 μg/l air? Thanks.
**A:** condition not met

**Q:** Bench note: check whether `CC(=O)O[C@@H]1CC2CC[C@]1(C)C2(C)C` shows Odor Threshold below 0.0005 μg/l air
**A:** condition not met

**Q:** Is 0.0005 μg/l air strictly greater than the compound's reported Odor Threshold? compound: CCCCC(CC)C(=O)OC (racemic) [(+−)-methyl 2-ethylhexanoate]
**A:** condition not met

**Q:** Dear colleague, could you confirm whether Odor Threshold of `CCCCO` falls below 0.0005 μg/l air? Thanks.
**A:** condition not met

**Q:** Regarding `CC(=O)/C=C/C1=C(C)CCCC1(C)C` , kindly confirm whether its Odor Threshold is beneath 0.0005 μg/l air.
**A:** condition met

**Q:** Would you kindly verify if Odor Threshold of COC(C)(C)CCCC(C)C(C)O (racemic) is strictly less than 0.0005 μg/l air?
**A:** condition not met

**Q:** Please state whether Odor Threshold is below 0.0005 μg/l air for CCCC(O)CCC1C(C)CCC(C)C1(C)C (racemic)
**A:** condition met

**Q:** is_below(Odor Threshold, 0.0005 μg/l air) for CC1=CCC(C(C)(C)O)CC1 (racemic) [(+−)-ALPHA-TERPINEOL] ?
**A:** condition not met

**Q:** Input CC1C(C)(C)C2=C(C(=O)CCC2)C1(C)C (stereo not drawn) ; condition: Odor Threshold strictly below 0.0005 μg/l air. Does it hold?
**A:** condition not met

**Q:** Threshold test, Odor Threshold < 0.0005 μg/l air: CC(=O)/C(C)=C/C1C(C)=CCCC1(C)C (racemic)
**A:** condition met

**Q:** Determine if `CC(=O)CCC1=C(C)CCCC1(C)C` shows Odor Threshold strictly lower than 0.0005 μg/l air.
**A:** condition not met

**Q:** API: query returns whether the compound falls strictly under 0.0005 μg/l air in Odor Threshold. Query: CCC(O)COC1CCCCC1C(C)(C)C (racemic)
**A:** condition not met

**Q:** A record lists CC1=CCC(/C=C/C(C)C(C)O)C1(C)C (stereo not drawn) . Is its Odor Threshold below 0.0005 μg/l air?
**A:** condition met

**Q:** Odor Threshold strictly < 0.0005 μg/l air for this compound? C=C1C2CCC(C)(OCC)C1CCC2(C)C (racemic)
**A:** condition not met

**Q:** Given CC1(C)C2C[C@H]3CCC(=O)C=C3[C@@H]1C2 (single isomer, unassigned; (+)) , is recorded Odor Threshold strictly lower than 0.0005 μg/l air?
**A:** condition met

**Q:** API: query returns whether the compound falls strictly under 0.0005 μg/l air in Odor Threshold. Query: CCCC(O)CC[C@@H]1[C@@H](C)CCCC1(C)C (mixture of isomers)
**A:** condition not met

**Q:** Dear colleague, could you confirm whether Odor Threshold of CC(=O)OCCC1=CCC2CC1C2(C)C (stereo not drawn) falls below 0.0005 μg/l air? Thanks.
**A:** condition not met

----------
Assay: Volatility of perfuming compounds (Tables 4 to 10), with top/middle/bottom note type
Format: physicochemical
Settings: note type (Top/Middle/Bottom) by volatility; perfuming compounds having a green note
Experimental: In some aspects, the first perfume accord comprises perfuming compounds having a volatility ranging from 70,000 to 100 μg/l in air. In some aspects, perfuming compounds having a volatility ranging from 70,000 to 100 μg/l in air are referred to as “top notes”. In some aspects, the second perfume accord comprises perfuming compounds having a volatility ranging from 99 to 50 μg/l in air. […]
Measured quantity: Type

Take a look at these entries with their results.
INSERT INTO measurements (compound, measured_quantity, observed_result) VALUES
  ('COc1nccnc1CCCC(C)C', 'Type', 'Top'),
  ('CCC=CCC=C/C=C/C(=O)OCC [ETHYL (2E)-2,4,7-DECATRIENOATE]', 'Type', 'Bottom'),
  ('CC(=O)CCC=C(C)C [6-METHYL-5-HEPTEN-2-ONE]', 'Type', 'Top'),
  ('CCC/C=C/C=O [(2E)-2-HEXENAL]', 'Type', 'Top'),
  ('COc1ccc(CC(C)C=O)cc1 (racemic)', 'Type', 'Bottom'),
  ('CCC(CC(C)CC)=NO (stereo not shown) [5-METHYL-3-HEPTANONE OXIME]', 'Type', 'Top');

**Q:** # query: Type of entry C=CCOC(=O)COC1CCCCC1 [ALLYL (CYCLOHEXYLOXY)ACETATE]
**A:** Bottom

**Q:** Looking for the measured Type of COc1nccnc1CC(C)C [PYRAZOBUTYLE] , can you help?
**A:** Top

**Q:** Which Type is reported for this compound? CCCC(=NO)C(C)C [2-METHYL-3-HEXANONE OXIME]
**A:** Top

**Q:** Return reported Type; argument: CCCCCCC=O [HEPTANAL]
**A:** Top

----------
experiment: Volatility of perfuming compounds (Tables 4 to 10), with top/middle/bottom note type; assay type: physicochemical; conditions: note type (Top/Middle/Bottom) by volatility; perfuming compounds having a green note
Measured quantity: Type

INSERT INTO measurements (molecule, observed_result) VALUES
  ('CCCCCCOC(C)=O [HEXYL ACETATE]', 'Top'),
  ('CCCc1ccc2c(c1)OCC(=O)CO2 [7-PROPYL-2H,4H-1,5-BENZODIOXEPIN-3-ONE]', 'Bottom'),
  ('CCCCCCOC(=O)C(C)C [hexyl 2-methylpropanoate]', 'Top'),
  ('CCCCCC/C(C=O)=C\c1ccccc1', 'Bottom'),
  ('CCOC(=O)C(=O)C(C)CC (racemic) [(+−)-ETHYL 3-METHYL-2-OXOPENTANOATE]', 'Top');

**Q:** Data request, read-out Type, for C/C=C(\C)C(=O)OCCCCCC [hexyl (2E)-2-methyl-2-butenoate]
**A:** Top

**Q:** Look up Type: `CCCCCCCCC=O`
**A:** Top

**Q:** Fill in: Type of COCC(C)Cc1ccccc1 (racemic) [(+−)-(3-methoxy-2-methylpropyl)benzene] is ___
**A:** Top

**Q:** Look at this molecule and give its reported Type. CC/C=C\CCOC(=O)C/C=C\CC [(3Z)-3-hexen-1-yl (3Z)-3-hexenoate]
**A:** Top

----------
assay: Volatility of perfuming compounds (Tables 4 to 10), with top/middle/bottom note type; format: physicochemical; conditions: Table 9, perfuming compounds having a gourmand note; note type by volatility
Measured quantity: Type

Use the examples below as a reference point.
INSERT INTO results (molecule, observed_result) VALUES
  ('C=CCOC(=O)CCC1CCCCC1 [ALLYL 3-CYCLOHEXYLPROPANOATE]', 'Middle'),
  ('CCCCCC(=O)O', 'Top'),
  ('CCCCCC1CCCC(=O)O1 (racemic) [(+−)-6-pentyltetrahydro-2H-pyran-2-one]', 'Bottom'),
  ('CCCC(=O)OC(C)(C)Cc1ccccc1 [1,1-DIMETHYL-2-PHENYLETHYL BUTANOATE]', 'Bottom'),
  ('CC/C=C\CCOC(=O)C/C=C\CC [(3Z)-3-hexen-1-yl (3Z)-3-hexenoate]', 'Top');

**Q:** Dear colleague, I am looking for the recorded Type of the following molecule: COc1cc(C=O)ccc1O [4-hydroxy-3-methoxybenzaldehyde]
**A:** Bottom

**Q:** I am curious: what Type value has been reported for O=Cc1ccc2c(c1)OCO2 [benzo[d][1,3]dioxole-5-carbaldehyde] ?
**A:** Middle

**Q:** Reported Type, molecule CC(=O)OCCC1CCCCC1 [2-CYCLOHEXYLETHYL ACETATE] : ____
**A:** Top

**Q:** Which Type is listed for `CC/C=C\CC1=C(C)CCC1=O` ?
**A:** Middle

**Q:** Fill in: Type of CC(=O)C(C)O (racemic) [(+−)-3-HYDROXY-2-BUTANONE] is ___
**A:** Top

**Q:** Dear colleague, I am looking for the recorded Type of the following molecule: `COc1cc(C=O)ccc1OC(=O)C(C)C`
**A:** Bottom

**Q:** Form field: reported Type of C/C=C/C(=O)[C@@H]1[C@@H](C)C=CCC1(C)C (racemic)
**A:** Top

**Q:** Which measured Type value corresponds to CCC(CC(C)CC)=NO (stereo not shown) ?
**A:** Top

**Q:** Entry CCOC(=O)CC1(C)OCCO1 [ETHYL 2-METHYL-1,3-DIOXOLANE-2-ACETATE] has what Type?
**A:** Top

**Q:** Would you kindly share the measured Type for C=CCSSCC=C [DIALLYL DISULFIDE] ?
**A:** Top

**Q:** Returns the measured Type for the input molecule. Input: COC(=O)Cc1ccccc1 [METHYL PHENYLACETATE]
**A:** Top

**Q:** Which Type is listed for CCCCC1CCC(=O)O1 (racemic) [(+−)-4-OCTANOLIDE] ?
**A:** Top

**Q:** Query (molecule): `CCC(=O)/C=C/C1=C(C)CCCC1(C)C` ; field requested: Type
**A:** Bottom

**Q:** Request the reported Type associated with CC(C)C(=O)OCCc1ccccc1 [2-PHENYLETHYL ISOBUTYRATE]
**A:** Middle

**Q:** I have this molecule here, O=C(Cc1ccccc1)OCCc1ccccc1 [2-PHENYLETHYL PHENYLACETATE] , and I need its recorded Type.
**A:** Bottom

**Q:** Can you look up the measured Type of CC(C)(C)C(=O)OCCc1ccccc1 [2-PHENYLETHYL PIVALATE] for me?
**A:** Middle

**Q:** Can you share its Type? I mean this molecule: C=C(C)CC(C)OC(=O)C(C)C (racemic)
**A:** Top
